Measured maximum absorption wavelength accompanies every entry in the list below.
assay: absorption spectrum (maximum absorption wavelength, molar extinction coefficient); format: physicochemical
result type: maximum absorption wavelength (nm)

compound="COc1c2c3c4c(c(NCCSCCOCCO)c(=O)c5c(O)cc(OC)c(c6c(OC)cc(NCCSCCOCCO)c(c1=O)c63)c54)C=C(C)C2C(C)=O (stereo not drawn) [HB-6d-PEG1]" output_unit=nm reported_value=625
compound="COc1c2c3c4c(c(NC5(CO)CC5)c(=O)c5c(O)cc(OC)c(c6c(OC)cc(NC7(CO)CC7)c(c1=O)c63)c54)C=C(C)C2C(C)=O (stereo not drawn) [HB-35d]" output_unit=nm reported_value=621
compound="COCCOC(=O)C1CCC(CNc2c(NCC3CCC(C(=O)OCCOC)CC3)c3c(=O)cc(OC)c4c5c(OC)cc(=O)c6c(O)c(OC)c7c(c(c2C=C(C)C7)c34)c65)CC1 (stereo not drawn) [HC-13a-PEG1]" output_unit=nm reported_value=622
compound="COCCOCCOCCOCCOCCOCCOC(=O)C1CCCC(Nc2c3c4c5c(c(OC)c(=O)c6c(NC7CCCC(C(=O)OCCOCCOCCOCCOCCOCCOC)C7)cc(OC)c(c7c(OC)cc(O)c(c2=O)c74)c65)C(C(C)=O)C(C)=C3)C1 (stereo not drawn) [HB-15d-PEG6]" output_unit=nm reported_value=630
compound="CCNc1c(NC2CCCC2)c2c(=O)c(SCCO)c(OC)c3c4c(OC)cc(=O)c5c(O)c(OC)c6c(c(c1C=C(C)C6C(C)=O)c23)c54 (stereo not drawn) [HB-S-44a]" output_unit=nm reported_value=628
compound="COc1c2c3c4c(c(NCCS(=O)(=O)OC)c(=O)c5c(O)cc(OC)c(c6c(OC)cc(NCCS(=O)(=O)OC)c(c1=O)c63)c54)C=C(C)C2C(C)=O (stereo not drawn) [HB-12d]" output_unit=nm reported_value=624
compound="COc1c(NCCS(=O)(=O)OC)c2c(=O)cc(OC)c3c4c(OC)cc(=O)c5c(O)c(NCCS(=O)(=O)OC)c6c(c(c1C(C(C)=O)C(C)=C6)c23)c54 (stereo not drawn) [HB-12b]" output_unit=nm reported_value=621
compound="COc1c(O)c2c(=O)cc(OC)c3c4c(OC)cc(=O)c5c(NCCCC(=O)NCC[N+](C)(C)C)c(NCCCC(=O)NCC[N+](C)(C)C)c6c(c(c1CC(C)=C6)c23)c54 [HC-8a-NH—C2-N^+]" output_unit=nm reported_value=622
compound="COC(=O)C1CCC(CNc2c(O)c3c(=O)cc(OC)c4c5c(OC)cc(=O)c6c(NCC7CCC(C(=O)OC)CC7)c(OC)c7c(c(c2C=C(C)C7C(C)=O)c34)c65)CC1 (stereo not drawn) [HB-13b-AcE]" output_unit=nm reported_value=623
compound="COc1c2c3c4c(c(NCCCCCC(=O)O)c(=O)c5c(NCCCCCC(=O)O)cc(OC)c(c6c(OC)cc(O)c(c1=O)c63)c54)C=C(C)C2 [HC-9c]" output_unit=nm reported_value=628
compound="COCCOCCOC(=O)C1CCCC1Nc1c(NC2CCCC2C(=O)OCCOCCOC)c2c(=O)cc(OC)c3c4c(OC)cc(=O)c5c(O)c(OC)c6c(c(c1C=C(C)C6C(C)=O)c23)c54 (stereo not drawn) [HB-21a-PEG1]" output_unit=nm reported_value=624
compound="COc1c2c3c4c(c(NCCCC(=O)O)c(=O)c5c(NCCCC(=O)O)cc(OC)c(c6c(OC)cc(O)c(c1=O)c63)c54)C=C(C)C2C(C)=O (stereo not drawn) [HB-8c]" output_unit=nm reported_value=620

Every entry's value here was drawn from patent US11439707B2.
